System: A549/taxol
Assay: MTT antiproliferative assay, Taxol-resistant A549
Type: cell-based
Conditions: read-out: IC50 A549/taxol; MTT, 72 h; Taxol-resistant A549

# COMPOUND, TARGET ENTITY, IC50 [nM]
records = [
    ("CC(C)=CCC12OC(C)(C)C3CC(C=C4C(=O)c5c(OC(=O)N6CCC(N7CCCCC7)CC6)cccc5OC431)C2=O (stereo not shown) [Compound 8n]", "A549/taxol", 1900),
    ("CC(C)=CCC12OC(C)(C)C3CC(C=C4C(=O)c5c(OC(=O)N6CCN(C)CC6)cccc5OC431)C2=O (stereo not shown) [Compound 8m]", "A549/taxol", 1100),
    ("CC(C)=CCC12OC(C)(C)C3CC(C=C4C(=O)c5c(OC(=O)N6CCN(C)CC6)cccc5OC431)C2=O (stereo not shown) [Compound 8o]", "A549/taxol", 510),
    ("CC(C)=CCC12OC(C)(C)C3CC(C=C4C(=O)c5c(OC(=O)N6CCC(N7CCCCC7)CC6)cccc5OC431)C2=O (stereo not shown) [Compound 8l]", "A549/taxol", 610),
]

Values were extracted from paper PMC5073322.
